Target: hCE2 (Homo sapiens, UniProt O00748)
Construct: tissue Bioreclamation IVT lot no; X008067; host or cells: pooled human liver microsomes, 50 donors
Sequence (O00748 27-559): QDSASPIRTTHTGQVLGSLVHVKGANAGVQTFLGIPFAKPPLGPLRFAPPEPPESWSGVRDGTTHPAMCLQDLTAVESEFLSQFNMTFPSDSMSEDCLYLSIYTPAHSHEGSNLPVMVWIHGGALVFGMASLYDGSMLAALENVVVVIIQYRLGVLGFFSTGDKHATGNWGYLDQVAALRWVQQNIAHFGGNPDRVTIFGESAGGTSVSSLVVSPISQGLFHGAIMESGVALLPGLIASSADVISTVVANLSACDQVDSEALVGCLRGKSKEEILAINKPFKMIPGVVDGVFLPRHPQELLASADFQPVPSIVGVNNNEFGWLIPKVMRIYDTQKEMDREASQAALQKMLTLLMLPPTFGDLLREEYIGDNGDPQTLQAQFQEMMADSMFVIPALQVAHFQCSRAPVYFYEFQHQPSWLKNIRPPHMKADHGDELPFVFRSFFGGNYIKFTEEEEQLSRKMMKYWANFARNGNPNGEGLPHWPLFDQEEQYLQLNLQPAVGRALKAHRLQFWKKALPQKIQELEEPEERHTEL
Assay: hCE2 inhibition assay (FD hydrolysis in human liver microsomes)
Format: biochemical
Details: FD probe substrate (5 μM), HLM, PBS pH 7.4, 37 °C
MEASUREMENT LABEL: IC50 (µM)
Write down the numeric answer in µM and omit the unit.

- COMPOUND: "COc1cc(COc2cc(-c3cc4ccc(OC)c(OC)c4c4[n+]3C(OC)CO4)ccc2OC)cc(OC)c1 (stereo not drawn) [Compound 23o]"
  MEASUREMENT LABEL: "IC50"
  VALUE UNIT: "µM"
  TEST RESULT: 1.19

Provide only the value of recorded IC50 for COC(=O)c1ccc(COc2cc(-c3cc4ccc(OC)c(OC)c4c4[n+]3C(OC)CO4)ccc2OC)cc1 (stereo not drawn) [Compound 23f]
5.73

Assign IC50 to the following record: COc1ccc2cc(-c3ccc4c(c3)OCO4)n(C(CO)OC)c(=O)c2c1OC (stereo not drawn) [Compound 23b]
41.7
